# credit: paper PMC6272970

test: Solubility trials of rutin in water, ethanol, methanol and NADES, quantified by HPLC-DAD; type: physicochemical; conditions: natural deep eutectic solvent (NADES), 22 °C, organic solvent or mixture, thermodynamic from solid, solvent mixture 14 Ornitine–Tartaric Acid 1:1
Observation Type: solubility at 1 h (µg/mL)

Record Smiles	Units Of Measure	Quantitative Result
C[C@@H]1O[C@@H](OC[C@H]2O[C@@H](Oc3c(-c4ccc(O)c(O)c4)oc4cc(O)cc(O)c4c3=O)[C@H](O)[C@@H](O)[C@@H]2O)[C@H](O)[C@H](O)[C@H]1O	µg/mL	210

----------
Assay: Solubility trials of rutin in water, ethanol, methanol and NADES, quantified by HPLC-DAD
Type: physicochemical
Settings: natural deep eutectic solvent (NADES), 22 °C, organic solvent or mixture, thermodynamic from solid, solvent mixture 28 Proline–Choline Chloride 1:2
Description: Samples were stirred on a magnetic stirrer (Stuart, Bibby Scientific Ltd., Stone, Staffordshire, UK) for one hour at room temperature and centrifuged for 21 min at 13,000 rpm with Eppendorf 5415 R centrifuge The time of one-hour stirring was chosen because it was sufficient for all the prepared mixtures to reach maximum concentration of rutin. […] Limit of Quantification was 1 μg/mL. […] The chromatogram was recorded at 350 nm and spectral data for all peaks were obtained in the range of 190-400 nm. […]

Record Smiles	solubility at 1 h
C[C@@H]1O[C@@H](OC[C@H]2O[C@@H](Oc3c(-c4ccc(O)c(O)c4)oc4cc(O)cc(O)c4c3=O)[C@H](O)[C@@H](O)[C@@H]2O)[C@H](O)[C@H](O)[C@H]1O	2640 µg/mL

----------
experiment: Solubility trials of rutin in water, ethanol, methanol and NADES, quantified by HPLC-DAD; format: physicochemical; details: Glucose–Fructose–Water 1:1:1 (NADES mixture 5), 22 °C, organic solvent or mixture, thermodynamic from solid, solvent mixture 5 Glucose–Fructose–Water 1:1:1

Record Smiles	solubility at 1 h, µg/mL
C[C@@H]1O[C@@H](OC[C@H]2O[C@@H](Oc3c(-c4ccc(O)c(O)c4)oc4cc(O)cc(O)c4c3=O)[C@H](O)[C@@H](O)[C@@H]2O)[C@H](O)[C@H](O)[C@H]1O	81.9

----------
Experiment: Solubility trials of rutin in water, ethanol, methanol and NADES, quantified by HPLC-DAD
Format: physicochemical
Conditions: natural deep eutectic solvent (NADES), 22 °C, organic solvent or mixture, thermodynamic from solid, solvent mixture 4 Urea–Choline chloride 1:1
Experimental: Samples were stirred on a magnetic stirrer (Stuart, Bibby Scientific Ltd., Stone, Staffordshire, UK) for one hour at room temperature and centrifuged for 21 min at 13,000 rpm with Eppendorf 5415 R centrifuge The time of one-hour stirring was chosen because it was sufficient for all the prepared mixtures to reach maximum concentration of rutin. […] Limit of Quantification was 1 μg/mL. […] The chromatogram was recorded at 350 nm and spectral data for all peaks were obtained in the range of 190-400 nm. […]

Record Smiles	solubility at 1 h [µg/mL]
C[C@@H]1O[C@@H](OC[C@H]2O[C@@H](Oc3c(-c4ccc(O)c(O)c4)oc4cc(O)cc(O)c4c3=O)[C@H](O)[C@@H](O)[C@@H]2O)[C@H](O)[C@H](O)[C@H]1O	1880

----------
test: Solubility trials of rutin in water, ethanol, methanol and NADES, quantified by HPLC-DAD; format: physicochemical; conditions: natural deep eutectic solvent (NADES), 22 °C, organic solvent or mixture, thermodynamic from solid, solvent mixture 22 Proline–Citric Acid 1:1

Record Smiles	solubility at 1 h [µg/mL]
C[C@@H]1O[C@@H](OC[C@H]2O[C@@H](Oc3c(-c4ccc(O)c(O)c4)oc4cc(O)cc(O)c4c3=O)[C@H](O)[C@@H](O)[C@@H]2O)[C@H](O)[C@H](O)[C@H]1O	672

----------
experiment: Solubility trials of rutin in water, ethanol, methanol and NADES, quantified by HPLC-DAD; format: physicochemical; details: natural deep eutectic solvent (NADES), 22 °C, organic solvent or mixture, thermodynamic from solid, solvent mixture 20 Ornitine–Malic Acid 1:1
Observation Type: solubility at 1 h (µg/mL)

Record Smiles	Units Of Measure	Quantitative Result
C[C@@H]1O[C@@H](OC[C@H]2O[C@@H](Oc3c(-c4ccc(O)c(O)c4)oc4cc(O)cc(O)c4c3=O)[C@H](O)[C@@H](O)[C@@H]2O)[C@H](O)[C@H](O)[C@H]1O	µg/mL	408

----------
assay: Solubility trials of rutin in water, ethanol, methanol and NADES, quantified by HPLC-DAD; type: physicochemical; settings: natural deep eutectic solvent (NADES), 22 °C, organic solvent or mixture, thermodynamic from solid, solvent mixture 2 Urea–Glucose–Fructose 1:1:1

Record Smiles	solubility at 1 h, µg/mL
C[C@@H]1O[C@@H](OC[C@H]2O[C@@H](Oc3c(-c4ccc(O)c(O)c4)oc4cc(O)cc(O)c4c3=O)[C@H](O)[C@@H](O)[C@@H]2O)[C@H](O)[C@H](O)[C@H]1O	961

----------
assay: Solubility trials of rutin in water, ethanol, methanol and NADES, quantified by HPLC-DAD; type: physicochemical; conditions: natural deep eutectic solvent (NADES), 22 °C, organic solvent or mixture, thermodynamic from solid, solvent mixture 1 Urea–Glucose–Citric Acid 1:1:1

Record Smiles	solubility at 1 h, µg/mL
C[C@@H]1O[C@@H](OC[C@H]2O[C@@H](Oc3c(-c4ccc(O)c(O)c4)oc4cc(O)cc(O)c4c3=O)[C@H](O)[C@@H](O)[C@@H]2O)[C@H](O)[C@H](O)[C@H]1O	379

----------
assay: Solubility trials of rutin in water, ethanol, methanol and NADES, quantified by HPLC-DAD; type: physicochemical; conditions: ethanol, solvent Ethanol; 22 °C; mean ± SD of 3
Observation Type: solubility at 1 h (µg/mL)

Record Smiles	Units Of Measure	Quantitative Result
C[C@@H]1O[C@@H](OC[C@H]2O[C@@H](Oc3c(-c4ccc(O)c(O)c4)oc4cc(O)cc(O)c4c3=O)[C@H](O)[C@@H](O)[C@@H]2O)[C@H](O)[C@H](O)[C@H]1O	µg/mL	2370

----------
experiment: Solubility trials of rutin in water, ethanol, methanol and NADES, quantified by HPLC-DAD; assay type: physicochemical; conditions: Glucose–Citric Acid–Water 1:1:1 (NADES mixture 9), solvent mixture 9 Glucose–Citric Acid–Water 1:1:1; 22 °C

Record Smiles	solubility at 1 h
C[C@@H]1O[C@@H](OC[C@H]2O[C@@H](Oc3c(-c4ccc(O)c(O)c4)oc4cc(O)cc(O)c4c3=O)[C@H](O)[C@@H](O)[C@@H]2O)[C@H](O)[C@H](O)[C@H]1O	175 µg/mL
